MEASUREMENT_TARGET: Cytoplasmic tyrosine-protein kinase BMX (Homo sapiens) (UniProt P51813);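 further: reported value is the mean percent inhibition of BMX, from the GSK PKIS kinase inhibitor screen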
Sequence (P51813 whole entry): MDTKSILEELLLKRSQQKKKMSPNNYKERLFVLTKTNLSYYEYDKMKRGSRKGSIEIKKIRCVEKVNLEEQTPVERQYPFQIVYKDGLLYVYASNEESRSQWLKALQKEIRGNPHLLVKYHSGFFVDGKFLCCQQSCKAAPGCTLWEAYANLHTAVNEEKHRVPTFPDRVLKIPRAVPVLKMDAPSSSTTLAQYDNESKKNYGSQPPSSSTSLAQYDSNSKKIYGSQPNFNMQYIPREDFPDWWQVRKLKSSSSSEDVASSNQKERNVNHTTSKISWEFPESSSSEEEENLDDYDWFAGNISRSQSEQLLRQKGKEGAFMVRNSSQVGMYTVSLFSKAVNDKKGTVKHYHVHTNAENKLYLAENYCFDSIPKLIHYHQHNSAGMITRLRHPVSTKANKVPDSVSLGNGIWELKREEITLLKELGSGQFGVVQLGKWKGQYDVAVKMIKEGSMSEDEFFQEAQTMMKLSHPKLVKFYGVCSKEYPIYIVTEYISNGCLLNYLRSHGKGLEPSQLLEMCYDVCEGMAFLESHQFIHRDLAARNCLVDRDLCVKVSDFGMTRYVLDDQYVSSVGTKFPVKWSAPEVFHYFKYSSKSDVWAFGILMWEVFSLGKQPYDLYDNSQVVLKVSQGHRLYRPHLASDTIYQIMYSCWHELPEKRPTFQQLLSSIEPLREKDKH
TEST_SETTINGS: at 1 µM
Below is a list of entries, each paired with its recorded inhibition value.
The answer is to be given in %; state only the numeric part.

| SMILES_INPUT | QUANTITATIVE_RESULT |
| --- | --- |
| COc1cc(N2CCN(C(C)C)CC2)ccc1Nc1nc(Nc2ccc(F)cc2C(N)=O)c2cc[nH]c2n1 | 5.02 |
| CC(C)COC(=O)c1ccc2c(c1)/C(=C/Nc1ccc(S(N)(=O)=O)cc1)C(=O)N2 | -1.5 |
| CS(=O)(=O)CCNCc1coc(-c2ccc3ncnc(Nc4ccc(OCc5ccccc5)cc4)c3c2)c1 | 6.49 |

Kindly review the next compound as well.
Q. Note down inhibition recorded for `CCNC(=O)O[C@H]1CN[C@H](C#Cc2cc3ncnc(Nc4ccc(OCc5cccc(F)c5)c(Cl)c4)c3s2)C1`
A. 2.73

* * *

MEASUREMENT_TARGET: Serine/threonine-protein kinase MRCK alpha (Homo sapiens) (UniProt Q5VT25);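 further: each inhibition figure is a mean value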
Sequence (Q5VT25 whole entry): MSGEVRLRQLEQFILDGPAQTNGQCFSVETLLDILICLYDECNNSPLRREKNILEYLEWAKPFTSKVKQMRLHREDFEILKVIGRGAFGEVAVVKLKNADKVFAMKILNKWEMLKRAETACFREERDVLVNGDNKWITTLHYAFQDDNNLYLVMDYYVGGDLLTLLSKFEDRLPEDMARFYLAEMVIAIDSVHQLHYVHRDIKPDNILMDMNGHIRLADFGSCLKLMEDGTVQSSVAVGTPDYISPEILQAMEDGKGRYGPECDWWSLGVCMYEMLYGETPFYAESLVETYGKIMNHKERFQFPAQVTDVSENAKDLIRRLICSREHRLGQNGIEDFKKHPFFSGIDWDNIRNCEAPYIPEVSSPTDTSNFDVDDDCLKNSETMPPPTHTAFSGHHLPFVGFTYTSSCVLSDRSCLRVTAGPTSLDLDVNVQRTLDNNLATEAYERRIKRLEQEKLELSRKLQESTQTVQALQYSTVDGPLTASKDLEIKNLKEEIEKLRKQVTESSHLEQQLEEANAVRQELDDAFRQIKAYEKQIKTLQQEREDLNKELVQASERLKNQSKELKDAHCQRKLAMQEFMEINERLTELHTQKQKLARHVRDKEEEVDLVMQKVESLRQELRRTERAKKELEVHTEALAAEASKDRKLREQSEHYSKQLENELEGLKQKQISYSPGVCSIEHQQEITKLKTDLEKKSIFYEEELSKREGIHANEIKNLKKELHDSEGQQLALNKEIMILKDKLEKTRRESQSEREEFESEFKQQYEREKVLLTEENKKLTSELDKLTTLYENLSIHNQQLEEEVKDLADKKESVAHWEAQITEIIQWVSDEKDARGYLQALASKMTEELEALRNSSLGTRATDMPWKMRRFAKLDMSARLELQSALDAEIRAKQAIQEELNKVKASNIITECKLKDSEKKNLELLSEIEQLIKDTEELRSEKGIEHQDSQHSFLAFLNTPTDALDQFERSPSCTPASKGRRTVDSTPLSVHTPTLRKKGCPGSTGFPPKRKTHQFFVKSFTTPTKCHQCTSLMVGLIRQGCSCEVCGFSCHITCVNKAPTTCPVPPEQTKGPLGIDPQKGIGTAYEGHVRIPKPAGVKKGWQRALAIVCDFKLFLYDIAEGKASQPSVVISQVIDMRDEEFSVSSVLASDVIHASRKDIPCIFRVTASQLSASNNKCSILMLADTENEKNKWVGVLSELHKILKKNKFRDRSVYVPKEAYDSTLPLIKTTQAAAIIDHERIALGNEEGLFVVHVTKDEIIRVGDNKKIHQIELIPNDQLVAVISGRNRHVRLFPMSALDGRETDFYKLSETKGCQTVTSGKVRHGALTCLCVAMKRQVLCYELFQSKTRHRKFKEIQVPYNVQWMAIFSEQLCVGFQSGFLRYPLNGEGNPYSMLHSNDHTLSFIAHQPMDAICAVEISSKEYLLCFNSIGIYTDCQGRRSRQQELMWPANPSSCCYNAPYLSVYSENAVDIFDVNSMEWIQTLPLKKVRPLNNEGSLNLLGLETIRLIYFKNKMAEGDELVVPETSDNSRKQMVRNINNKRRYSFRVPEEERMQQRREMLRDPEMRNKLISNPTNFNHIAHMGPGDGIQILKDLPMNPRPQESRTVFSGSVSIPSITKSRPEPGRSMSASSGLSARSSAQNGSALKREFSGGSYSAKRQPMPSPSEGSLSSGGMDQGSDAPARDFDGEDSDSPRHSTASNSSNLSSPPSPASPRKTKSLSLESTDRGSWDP
TEST_SETTINGS: at 0.1 µM
PROPERTY: inhibition
Answer with the number, then the unit.

Check out these entries, answers already filled in.
| SMILES_INPUT | MEASUREMENT_TARGET | inhibition |
| --- | --- | --- |
| Cc1cccc2c1NC(=O)/C2=N\Nc1ccc(S(N)(=O)=O)cc1 | Serine/threonine-protein kinase MRCK alpha (Homo sapiens) (UniProt Q5VT25) | -1.02% |
| COc1ccc(-c2cc3c(N)ncnc3o2)cc1 | Serine/threonine-protein kinase MRCK alpha (Homo sapiens) (UniProt Q5VT25) | 1.37% |
| COc1ccc(CNC(=O)c2ccc(-c3cc(-c4nnc(C)o4)ccc3C)cc2)cc1 | Serine/threonine-protein kinase MRCK alpha (Homo sapiens) (UniProt Q5VT25) | 2.98% |
| COc1cc(N2CCN(C(C)C)CC2)ccc1Nc1nc(Nc2ccc(F)cc2C(N)=O)c2cc[nH]c2n1 | Serine/threonine-protein kinase MRCK alpha (Homo sapiens) (UniProt Q5VT25) | 9.71% |
| CN(C)CCOc1ccc(-c2nc(-c3ccncc3)c(-c3ccc4c(c3)CC/C4=N\O)[nH]2)cc1 | Serine/threonine-protein kinase MRCK alpha (Homo sapiens) (UniProt Q5VT25) | -0.58% |
| Fc1cccc(COc2ccc(Nc3ncnc4sc(-c5ccco5)cc34)cc2Cl)c1 | Serine/threonine-protein kinase MRCK alpha (Homo sapiens) (UniProt Q5VT25) | -3.73% |

Kindly review the next molecule as well.
Q. Note down inhibition recorded for `CN1CCC(n2cnc(-c3ccc(F)cc3)c2-c2ccnc(N)n2)CC1`
A. 1.47%

* * *

MEASUREMENT_TARGET: Serine/threonine-protein kinase SIK2 (Homo sapiens) (UniProt Q9H0K1);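 further: mean inhibition of SNF1LK2 (QIK) kinase activity, from the GSK PKIS screening panel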
Sequence (Q9H0K1 whole entry, looked up): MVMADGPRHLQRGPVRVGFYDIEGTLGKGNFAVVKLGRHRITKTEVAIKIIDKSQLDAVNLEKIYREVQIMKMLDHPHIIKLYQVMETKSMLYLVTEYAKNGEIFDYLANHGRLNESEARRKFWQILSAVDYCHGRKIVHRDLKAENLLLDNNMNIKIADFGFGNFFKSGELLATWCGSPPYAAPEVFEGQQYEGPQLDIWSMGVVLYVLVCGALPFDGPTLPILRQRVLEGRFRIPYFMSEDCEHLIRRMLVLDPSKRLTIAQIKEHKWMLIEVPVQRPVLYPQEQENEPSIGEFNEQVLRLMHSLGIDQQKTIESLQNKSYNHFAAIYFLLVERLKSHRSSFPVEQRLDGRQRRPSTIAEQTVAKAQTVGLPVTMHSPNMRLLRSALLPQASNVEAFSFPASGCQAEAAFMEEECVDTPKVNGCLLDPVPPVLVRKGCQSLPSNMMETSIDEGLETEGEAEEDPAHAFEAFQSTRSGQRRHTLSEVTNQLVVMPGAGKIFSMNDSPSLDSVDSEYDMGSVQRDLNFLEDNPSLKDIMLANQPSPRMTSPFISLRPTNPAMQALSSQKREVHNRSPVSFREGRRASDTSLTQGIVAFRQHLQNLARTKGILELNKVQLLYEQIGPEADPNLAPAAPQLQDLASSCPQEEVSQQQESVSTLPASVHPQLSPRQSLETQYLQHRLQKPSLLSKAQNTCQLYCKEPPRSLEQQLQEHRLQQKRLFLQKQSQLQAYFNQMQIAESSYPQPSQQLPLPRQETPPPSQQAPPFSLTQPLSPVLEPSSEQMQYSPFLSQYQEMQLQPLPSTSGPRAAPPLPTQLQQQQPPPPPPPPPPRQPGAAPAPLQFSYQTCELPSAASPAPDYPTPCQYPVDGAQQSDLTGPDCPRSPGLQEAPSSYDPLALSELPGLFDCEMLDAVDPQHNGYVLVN
TEST_SETTINGS: at 1 µM
Below is a list of entries, each paired with its recorded inhibition value.
The answer is to be given in %; state only the numeric part.

| SMILES_INPUT | inhibition, % |
| --- | --- |
| O=C(O[C@H]1CN[C@H](C#Cc2cc3ncnc(Nc4ccc(Cc5ccccc5)cc4)c3s2)C1)N1CCOCC1 | -0.83 |
| COc1ccc(-c2oc3ncnc(N)c3c2-c2ccc(NC(=O)Nc3cc(C(F)(F)F)ccc3F)cc2)cc1 | 10.7 |

Q. Note down inhibition recorded for `CCCN1CCC(c2ccc(Nc3nc(Nc4cc(F)ccc4C(N)=O)c4cc[nH]c4n3)c(OC)c2)CC1`
A. 11.7
